Just for reference, patent US20250034275A1 is where these values come from.

We begin with a simple list: items and their reported ADCC, PBMC killing (LDH), H322, EC50.
Biological target: T1, human Trop-2 (on the surface of human cell lines) (human, UniProt P09758 27-323)
T1 sequence: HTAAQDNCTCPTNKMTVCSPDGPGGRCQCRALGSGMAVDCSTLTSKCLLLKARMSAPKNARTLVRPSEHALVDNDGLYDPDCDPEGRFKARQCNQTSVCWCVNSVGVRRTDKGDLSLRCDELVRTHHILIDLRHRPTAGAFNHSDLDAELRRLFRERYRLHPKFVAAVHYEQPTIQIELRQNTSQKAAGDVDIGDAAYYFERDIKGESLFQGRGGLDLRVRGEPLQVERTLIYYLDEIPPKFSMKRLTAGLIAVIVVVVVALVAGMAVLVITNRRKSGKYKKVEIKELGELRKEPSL
Assay: cell-based or functional assay
# value in nM; strip the unit string

Observe how each entry below is paired with its result.
binder	experimental-readout	quantitative-readout
hz-Ab2-1.2 (antibody, human IgG1, kappa, V domains shown, Humanized antibody) VH: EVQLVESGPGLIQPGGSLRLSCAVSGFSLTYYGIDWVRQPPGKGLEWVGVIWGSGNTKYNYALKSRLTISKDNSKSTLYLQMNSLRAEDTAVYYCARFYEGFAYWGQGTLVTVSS VL: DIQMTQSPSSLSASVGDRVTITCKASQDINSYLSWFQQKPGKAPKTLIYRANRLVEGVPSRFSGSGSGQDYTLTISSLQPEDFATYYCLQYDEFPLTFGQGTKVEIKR	ADCC, PBMC killing (LDH), H322, EC50	0.01
hz-Ab35-2.3 (antibody, human IgG1, kappa, V domains shown, Humanized antibody) VH: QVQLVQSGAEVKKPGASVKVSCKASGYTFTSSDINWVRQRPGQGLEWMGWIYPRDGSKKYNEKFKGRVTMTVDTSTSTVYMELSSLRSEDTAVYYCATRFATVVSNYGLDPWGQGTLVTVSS VL: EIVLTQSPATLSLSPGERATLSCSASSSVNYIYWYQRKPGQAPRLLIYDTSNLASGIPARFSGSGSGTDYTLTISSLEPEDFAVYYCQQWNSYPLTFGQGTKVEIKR	ADCC, PBMC killing (LDH), H322, EC50	0.02
hz-Ab21-2.2 (antibody, human IgG1, kappa, V domains shown, Humanized antibody) VH: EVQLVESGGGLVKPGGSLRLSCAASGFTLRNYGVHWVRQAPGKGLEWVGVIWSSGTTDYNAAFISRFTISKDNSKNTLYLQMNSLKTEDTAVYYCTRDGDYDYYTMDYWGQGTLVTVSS VL: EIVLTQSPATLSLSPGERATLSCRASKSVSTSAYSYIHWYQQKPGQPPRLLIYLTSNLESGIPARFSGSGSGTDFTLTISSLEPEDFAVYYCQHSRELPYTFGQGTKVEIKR	ADCC, PBMC killing (LDH), H322, EC50	0.07
ch-Ab35 (antibody, human IgG1, kappa, V domains shown, Mouse VH/VL on human IgG1 and human kappa constant regions; also called chimeric antibody of Ab35) VH: EVQLQQSGPDLVRPGASVKLSCKASGYTFTSSDINWVKQRPGQGLEWIGWIYPRDGSKKYNEKFKGKATLTVDTSSSTAYMEVHSLTSEDSAVYFCATRFATVVSNYGLDPWGQGTSVTVSS VL: AIVLTQSPAIMSASPGEKVTMTCSASSSVNYIYWYQRKPGSSPRLLIYDTSNLASGVPVRFSGSGSGTSYSLTISRMEAEDAATYYCQQWNSYPLTFGAGTKLELKR	ADCC, PBMC killing (LDH), H322, EC50	0.01

Entry under review: ch-Ab21 (antibody, human IgG1, kappa, V domains shown, Mouse VH/VL on human IgG1 and human kappa constant regions; also called chimeric antibody of Ab21) VH: EVQLKQSGPGLVQPSQSLSITCTVSGFSLRNYGVHWVRQSPGKGLEWLGVIWSSGTTDYNAAFISRLSITKDNSKSQVFFKMNSLQVDDTAIYNCARDGDYDYYTMDYWGQGTSVTVSS VL: AIVLTQSPASLAVSLGQRATISCRASKSVSTSAYSYIHWYQQKPGQPPKLLIYLTSNLESGVPARFSGSGSGTDFTLNIHPVEEEDAATYYCQHSRELPYTFGGGTKLEIKR . Reported ADCC, PBMC killing (LDH), H322, EC50? 0.13
